Target: Voltage-gated inwardly rectifying potassium channel KCNH2 (Homo sapiens)
Assay: KCNH2 potassium channel function modulators, cell-based (AID 376);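 further: 0% = buffer alone and 100% = reference blocker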
Conditions: hERG-expressing cells, channel activity single-concentration screen; concentration not given here
The whole screen tested about 2,000 compounds, of which about 250 (12%) were called active. The full list was thinned out, with actives kept by preference.
// hERG blockade lookup, one value per entry

compound	hERG blockade / %
O=C(O)C(Cc1cn[nH]n1)=NO	7.89
NCc1nnn(Cc2ccccc2)c1N	0.879
O=C(O)CN(CCN(CC(=O)O)CC(=O)O)CC(=O)O.[Cu+2]	1.62
Cc1cc(C)nc(SCCc2cccc[n+]2C)n1	71.5
Cc1ccc(C(N)=Nc2ccccc2)cc1	8.7
Cn1c(=O)c2c(nc(NN=Cc3ccccc3C(=O)O)n2C)n(C)c1=O	-7
COC(=O)C1(C)CCC(c2ccc(C)cc2)=C(CC(=O)O)C1 (stereo unspecified)	-13.4
CC(=O)Nc1ccc(S(=O)(=O)N=S(C)C)cc1	14.2
Cc1cc(C)nc(NC(=O)COc2ccc(Cl)cc2)c1	16.6
O=C(O)C(Cc1ccnc2ccccc12)=NO	-22.9
O=C(O)C(=Cc1ccnc2ccccc12)C(=O)O	3.04
CCC(CN(C)C)C(=O)c1ccco1 (stereo unspecified)	5.17
CCOc1ccccc1Nc1ccc(N)cc1S(=O)(=O)O	0.163
Cn1c(CC(O)c2nc3ccccc3n2C)nc2ccccc21 (stereo unspecified)	-5.68
CSC(CC(=O)O)C(=O)O (stereo unspecified)	-18
O=C1OC2(c3ccc(O)cc3Oc3cc(O)ccc32)c2c1c(-c1ccccc1)c(-c1ccccc1)c(-c1ccccc1)c2-c1ccccc1	-2.77
